Listing: ADI of selected molecules
Tested on: Canis familiaris
Assay: Activity duration index was evaluated in mixed-breed or Beagle dogs after intravenous administration.
Format: functional, Canis lupus familiaris
experimentalReadout: ADI

INSERT INTO results (molecule, endpointvalue) VALUES
  ('CC(C)N(CCC(CCN(C(C)C)C(C)C)(C(N)=O)c1ccccc1)C(C)C', 1.31),
  ('CC(C)N(CCC(CCN(C(C)C)C(C)C)(C(N)=O)c1ccc(C(C)(C)C)cc1)C(C)C', 1.35),
  ('CC(C)N(CCC(CCN1CC2CCC(CC2)C1)(C(N)=O)c1ccccc1)C(C)C (stereo not given)', 0.96),
  ('CC(C)N(CCC(CCn1cccc1)(C(N)=O)c1ccccc1)C(C)C (stereo not given)', 0.13),
  ('CC(C)N(CCC(CCN(C)C)(C(N)=O)c1ccc(C(C)(C)C)cc1)C(C)C (stereo not given)', 0.76);

---

Test system: Canis familiaris
Test: Activity duration index was evaluated in mixed-breed or Beagle dogs after intravenous administration.
Assay type: functional, Canis lupus familiaris
Decision: ADI compared against 0.7; not below it gives class 1, below it gives class 0.

INSERT INTO assay_data (compound, classassignment) VALUES
  ('CC(C)N(CCC(CCN(C(C)C)C(C)C)(C(N)=O)c1ccc(Cl)cc1Cl)C(C)C', 'class 1'),
  ('CC(C)N(CCC(CCN(C)C1CCCCC1)(C(N)=O)c1ccccc1F)C(C)C (stereo unspecified)', 'class 1'),
  ('CC(C)N(CCC(CCCN1CCCCC1)(C(N)=O)c1ccccc1F)C(C)C (stereo unspecified)', 'class 0'),
  ('CC(C)N(CCC(CCCN1CC2CCC(CC2)C1)(C(N)=O)c1ccccc1Cl)C(C)C (stereo unspecified)', 'class 0'),
  ('Cc1ccccc1C(CCN(C(C)C)C(C)C)(CCN(C(C)C)C(C)C)C(N)=O', 'class 1'),
  ('COc1ccc(C(CCN(C(C)C)C(C)C)(CCN(C(C)C)C(C)C)C(N)=O)cc1', 'class 1'),
  ('CC(C)N(CCC(CCN1CC2CCC1CC2)(C(N)=O)c1ccccc1)C(C)C (stereo unspecified)', 'class 1'),
  ('CC(C)N(CCC(CCN1CCCCC1)(C(N)=O)c1ccccc1Cl)C(C)C (stereo unspecified) [DISOBUTAMIDE]', 'class 1'),
  ('CCN(CC)CCC(CCN(C(C)C)C(C)C)(C(N)=O)c1ccccc1 (stereo unspecified)', 'class 1'),
  ('CC(C)N(CCC(CCN(C(C)C)C(C)C)(C(N)=O)c1ccccc1F)C(C)C', 'class 1'),
  ('CC(C)N(CCC(CCN1CCCCC1)(C(N)=O)c1ccc(Cl)cc1)C(C)C (stereo unspecified)', 'class 0'),
  ('CC(C)N(CCC(CCn1cccc1)(C(N)=O)c1ccccc1F)C(C)C (stereo unspecified)', 'class 0'),
  ('CC(C)N(CCC(CCN1CCCCC1)(C(N)=O)c1ccc(C(C)(C)C)cc1)C(C)C (stereo unspecified)', 'class 1'),
  ('CC(C)N(CCC(CCN(C(C)C)C(C)C)(C(N)=O)c1ccc(Cl)cc1)C(C)C', 'class 1'),
  ('CC(C)N(CCC(CCCN1CCCCC1)(C(N)=O)c1ccccc1Cl)C(C)C (stereo unspecified)', 'class 1'),
  ('CC(C)N(CCC(CCN(C)C)(C(N)=O)c1ccccc1)C(C)C (stereo unspecified)', 'class 0'),
  ('CC(C)N(CCC(CCN1CCOCC1)(C(N)=O)c1ccccc1Cl)C(C)C (stereo unspecified)', 'class 0'),
  ('CC(C)N(CCC(CCN(C(C)C)C(C)C)(C(N)=O)c1cccc(F)c1)C(C)C', 'class 0'),
  ('CC(C)N(CCC(CCCN(C)C)(C(N)=O)c1ccccc1F)C(C)C (stereo unspecified)', 'class 0'),
  ('CC(C)N(CCC(CCN1CCCCC1)(C(N)=O)c1ccccc1Br)C(C)C (stereo unspecified)', 'class 1');

---

Test system: Canis familiaris
Assay: Antiarrhythmic activity was evaluated in mixed-breed or Beagle dogs after intravenous administration.
Assay type: functional, Canis lupus familiaris, Heart
Class boundaries, taken from values of AR, are as follows: band A: < 6; band B: ≥ 6 and < 7; band C: ≥ 7

INSERT INTO measurements (molecule, subjectoftest, classassignment) VALUES
  ('CC(C)N(CCC(CCN(C(C)C)C(C)C)(C(N)=O)c1ccccc1)C(C)C', 'Canis familiaris', 'band B'),
  ('CC(C)N(CCC(CCN1CCCCC1)(C(N)=O)c1ccc(C(C)(C)C)cc1)C(C)C (stereo unspecified)', 'Canis familiaris', 'band C'),
  ('CC(C)N(CCC(CCN(C(C)C)C(C)C)(C(N)=O)c1ccc(Cl)c(Cl)c1)C(C)C', 'Canis familiaris', 'band A'),
  ('CC(C)N(CCC(CCN1CCCCC1)(C(N)=O)c1ccc(Cl)cc1)C(C)C (stereo unspecified)', 'Canis familiaris', 'band B'),
  ('CC(C)N(CCC(CCN(C(C)C)C(C)C)(C(N)=O)c1ccc(F)cc1F)C(C)C', 'Canis familiaris', 'band C'),
  ('CC(C)N(CCC(CCn1cccc1)(C(N)=O)c1ccccc1)C(C)C (stereo unspecified)', 'Canis familiaris', 'band A'),
  ('CC(C)N(CCC(CCN(C)C)(C(N)=O)c1ccccc1Cl)C(C)C (stereo unspecified)', 'Canis familiaris', 'band A'),
  ('CC(C)N(CCC(CCN1CCCCC1)(C(N)=O)c1cccc(Cl)c1)C(C)C (stereo unspecified)', 'Canis familiaris', 'band A'),
  ('CC(C)N(CCC(CCCN1CCCCC1)(C(N)=O)c1ccccc1F)C(C)C (stereo unspecified)', 'Canis familiaris', 'band A'),
  ('CC(C)N(CCC(CCN1CCOCC1)(C(N)=O)c1ccccc1)C(C)C (stereo unspecified)', 'Canis familiaris', 'band A'),
  ('CC(C)N(CCC(CCn1cccc1)(C(N)=O)c1ccccc1F)C(C)C (stereo unspecified)', 'Canis familiaris', 'band A'),
  ('CC(C)N(CCC(CCN1C(C)CCCC1C)(C(N)=O)c1ccccc1F)C(C)C (stereo unspecified)', 'Canis familiaris', 'band C'),
  ('CC(C)N(CCC(CCN(C(C)C)C(C)C)(C(N)=O)c1ccc(F)cc1)C(C)C', 'Canis familiaris', 'band B');

---

This listing pairs molecules with measured minimal effective dose.
System: Canis familiaris
Test: Minimum effective dose evaluated in mixed-breed or Beagle dogs after intravenous administration
Format: functional
Details: Canis lupus familiaris, read-out: MED
experimentalReadout: minimal effective dose (mg/kg)

INSERT INTO results (molecule, experimentalreadout, endpointvalue) VALUES
  ('CC(C)N(CCC(CCN1CCCCCC1)(C(N)=O)c1ccccc1F)C(C)C (stereo not given)', 'minimal effective dose', 3),
  ('CC(C)N(CCC(CCN(C(C)C)C(C)C)(C(N)=O)c1ccccc1Cl)C(C)C', 'minimal effective dose', 2.5),
  ('CC(C)N(CCC(C(N)=O)(c1ccccc1)c1ccccn1)C(C)C (stereo not given) [DISOPYRAMIDE]', 'minimal effective dose', 6.6),
  ('CC(C)N(CCC(CCN(C)C)(C(N)=O)c1ccccc1)C(C)C (stereo not given)', 'minimal effective dose', 12),
  ('CC1CCCCN1CCC(CCN(C(C)C)C(C)C)(C(N)=O)c1ccccc1F (stereo not given)', 'minimal effective dose', 7.5),
  ('CC(C)N(CCC(CCN(C(C)C)C(C)C)(C(N)=O)c1ccc(F)cc1F)C(C)C', 'minimal effective dose', 4.5),
  ('CCN(CC)CCC(CCN(C(C)C)C(C)C)(C(N)=O)c1ccccc1 (stereo not given)', 'minimal effective dose', 7.5),
  ('C=C[C@H]1CN2CC[C@H]1C[C@@H]2[C@@H](O)c1ccnc2ccc(OC)cc12 [QUINIDINE]', 'minimal effective dose', 13.5),
  ('CC(C)N(CCC(CCN1CCCCC1)(C(N)=O)c1ccc(Cl)cc1)C(C)C (stereo not given)', 'minimal effective dose', 3.5),
  ('CC(C)N(CCC(CCN(C(C)C)C(C)C)(C(N)=O)c1ccccc1F)C(C)C', 'minimal effective dose', 3);

---

Tested on: Canis familiaris
Experiment: Compound was evaluated for maximum reduction of ectopic beats after oral administration at a dose 25 mg/kg to dog.
Type: functional, Canis lupus familiaris, Heart
experimentalReadout: Reduction

INSERT INTO measurements (compound, subjectoftest, endpointvalue) VALUES
  ('C=C[C@H]1CN2CC[C@H]1C[C@@H]2[C@@H](O)c1ccnc2ccc(OC)cc12', 'Canis familiaris', '57%'),
  ('CC(C)N(CCC(CCN1CCOCC1)(C(N)=O)c1ccccc1)C(C)C (stereo unspecified)', 'Canis familiaris', '84%'),
  ('CC(C)N(CCC(CCN(C)C)(C(N)=O)c1ccccc1)C(C)C (stereo unspecified)', 'Canis familiaris', '100%'),
  ('CC(C)N(CCC(CCN1CCCCC1)(C(N)=O)c1ccccc1F)C(C)C (stereo unspecified)', 'Canis familiaris', '100%'),
  ('CC(C)N(CCC(C(N)=O)(c1ccccc1)c1ccccn1)C(C)C (stereo unspecified) [DISOPYRAMIDE]', 'Canis familiaris', '79%'),
  ('CC(C)N(CCC(CCN(C(C)C)C(C)C)(C(N)=O)c1ccc(Cl)cc1)C(C)C', 'Canis familiaris', '100%'),
  ('CC(C)N(CCC(CCN(C(C)C)C(C)C)(C(N)=O)c1ccccc1)C(C)C', 'Canis familiaris', '89%'),
  ('CC(C)N(CCC(CCN(C(C)C)C(C)C)(C(N)=O)c1ccc(F)cc1)C(C)C', 'Canis familiaris', '92%'),
  ('CC(C)N(CCC(CCN(C)C1CCCCC1)(C(N)=O)c1ccccc1F)C(C)C (stereo unspecified)', 'Canis familiaris', '67%'),
  ('CC(C)N(CCC(CCN1CCCCC1)(C(N)=O)c1ccccc1)C(C)C (stereo unspecified)', 'Canis familiaris', '97%'),
  ('CC(C)N(CCC(CCN(C(C)C)C(C)C)(C(N)=O)c1ccccc1F)C(C)C', 'Canis familiaris', '87%');
